PROTOCOL_DESCRIPTION: NCI Yeast Anticancer Drug Screen. Data for the sgs1 mgt1 strain (AID 161);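 also: 0% = growth of cultures given vehicle only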
ASSAY_CONTEXT: S. cerevisiae sgs1 mgt1 strain, at 50.0 µM, stronger effect = higher value
This is part of a sample that, as a whole, favours compounds with a hit. Of some 79,000 tested, about 15% had one in any assay. Active and inactive are the calls of the source. Rule as the data show it: active = growth inhibition above about 70%; inactive = the rest.
QUANTITY: growth inhibition

Consider the following illustrative entries.
CCN(CC)C(=O)CCNC(C)Cc1c[nH]c2ccccc12 (stereo not drawn)
39.9% (inactive)
Cc1ccc(NC(=O)N(C)N=O)cc1
-4.3% (inactive)
CCC(=O)C(CC(C)[N+](C)(C)C)(c1ccccc1)c1ccccc1 (stereo not drawn)
-4.6% (inactive)
N.N.N.N.N.NC(=O)[O-].[Co+3].[I-]
-13.1% (inactive)
C[N+]1(C)CCCC1c1cccnc1 (stereo not drawn)
-2.45% (inactive)
C1NCC2CNCC1O2
-7.95% (inactive)

Exercise: I'd like to know its growth inhibition. The molecule in question is c1cc2n[se]nc2cc1-c1ccc2n[se]nc2c1
Key: -7.85% (inactive)

Exercise: Sample [N-]=[N+]=C1C(=O)C2CC3CC1CC2C3 (stereo not drawn) — what was its growth inhibition?
Key: -9.35% (inactive)

Exercise: Request the reported growth inhibition associated with CC(Br)[N+](=O)[O-] (stereo not drawn)
Key: 5.4% (inactive)

Exercise: Reported growth inhibition, molecule COc1ccc2c(c1OC(C)=O)-c1cc(OC(C)=O)cc3c1C(C2)N(C(=O)CN(CCCl)CCCl)CC3 (stereo not drawn) : ____
Key: -1.95% (inactive)

Exercise: What value of growth inhibition has been recorded for this entry: NC(c1ccccc1)P(=O)(O)O (stereo not drawn)
Key: -29.9% (inactive)

Exercise: Any idea what growth inhibition was measured for CN1CN(c2ccccc2)C2(CCN(CCC3Oc4ccccc4O3)CC2)C1=O ?
Key: -0.4% (inactive)

Exercise: Name the recorded growth inhibition for CC(=O)c1ccccc1N=Nc1ccc(N(CCCl)CCCl)cc1C .
Key: 12.9% (inactive)

Exercise: What growth inhibition value was documented for this molecule, CCN(CC)/C(=C\Cl)Nc1ccccn1 ?
Key: -0.7% (inactive)

Exercise: Look up growth inhibition for this molecule: O=c1c2ccccc2nc(-c2ccccc2Cl)n1-c1nnc(C(F)(F)F)s1
Key: 18.3% (inactive)

Exercise: So what does the record say about growth inhibition for Cc1cc(C(C)(C)C)ccc1O ?
Key: 8.95% (inactive)

Exercise: growth inhibition for c1ccc(CC[N+]23CC[N+](CCc4ccccc4)(CC2)C3)cc1 ?
Key: 1.4% (inactive)

Exercise: Would you mind telling me what growth inhibition value was observed for [N-]=[N+]=[N-] ?
Key: 15% (inactive)

Exercise: Quick check: growth inhibition of N#CCCc1ccccc1 ?
Key: -1.95% (inactive)

Exercise: So what's the measured growth inhibition for this one? O.O=[N+]([O-])O.[NH2-].[NH2-].[Pt+2]
Key: 8.6% (inactive)

Exercise: Need growth inhibition, item N#CC(C#N)=Cc1ccccc1[N+](=O)[O-]
Key: 8.3% (inactive)

Exercise: Which growth inhibition is listed for SCc1ccccc1.[Cu+2] ?
Key: -0.45% (inactive)

Exercise: Data request, read-out growth inhibition, for N#CCC(=O)c1ccccc1
Key: -0.25% (inactive)

Exercise: State the recorded growth inhibition for this entry: COc1ccc(OC)c(CCc2cc(OC)ccc2OC)c1
Key: -9.95% (inactive)

Exercise: growth inhibition lookup needed for CCc1cc[c]([Sb](=[O])([OH])[OH])cc1 , thanks.
Key: 9.1% (inactive)

Exercise: Dear colleague, I am looking for the recorded growth inhibition of the following molecule: COc1cc(C=O)cc(OC)c1OC
Key: 5.25% (inactive)

Exercise: Given CN(C)C1CCNCC1 , state its recorded growth inhibition.
Key: 17% (inactive)

Exercise: If you can, please state the reported growth inhibition value of CCN(CC)CC(O)c1ccc(Br)cc1 (stereo not drawn) .
Key: -0.25% (inactive)

Exercise: Recorded growth inhibition of O=S(=O)(C(Cl)Cl)C(Cl)(Cl)S(=O)(=O)C(Cl)Cl , please.
Key: 5.8% (inactive)

Exercise: Using the record for CCC1NCCc2cc(OC)c(O)cc21 (stereo not drawn) , report its growth inhibition.
Key: -6.25% (inactive)

Exercise: Form field: reported growth inhibition of COc1cc2c(cc1OC)[C@@H]1C(=O)c3ccc4c(c3O[C@@H]1CO2)C[C@H](C(C)C)O4
Key: -1.45% (inactive)
